Tested on: pigweed (Amaranthus retroflexus)
Experiment: Test A pre-/postemergence: pigweed
Assay type: in vivo
Conditions: Preemergence, 125 g ai/ha; 0 to 100 scale (0 no effect, 100 complete control)
From the text: Seeds of barnyardgrass (Echinochloa crus-galli), crabgrass, large (large crabgrass, Digitaria sanguinalis), foxtail, giant (giant foxtail, Setaria faberii), morningglory (Ipomoea spp.), pigweed (Amaranthus retroflexus), velvetleaf (Abutilon theophrasti), wheat (Triticum aestivum), and corn (Zea mays) were planted into a blend of loam soil and sand and treated preemergence with a directed soil spray using test chemicals formulated in a non-phytotoxic solvent mixture which included a surfactant. […]
value_type: Plant response rating, Pigweed

Below, 4 molecules whose answers are already recorded.
Cc1nn(-c2ccc(C(F)(F)F)cc2)nc1Oc1ccnc(OC(F)F)c1; 40
Cc1nn(-c2ccc(C(F)(F)F)cc2)nc1Cn1cnc(C(F)(F)F)c1Cl; 0
COc1nn(-c2ccc(C(F)(F)F)cc2)nc1C(O)c1ccnc(C(F)(F)F)c1 (centres unmarked); 60
Cc1ccc(-n2nc(C)c(C(=O)c3cccc(C(F)(F)F)c3)n2)cc1; 20

Continue with the next molecule.
get_value(item= COc1nn(-c2ccc(C(F)(F)F)cc2)nc1Cn1nc(C(F)(F)F)cc1C(F)(F)F , readout=Plant response rating, Pigweed) returns 0

###

system: lambsquarters (Chenopodium album); assay: Test C pre-/postemergence: lambsquarters; type: in vivo; settings: Preemergence, 125 g ai/ha; scale 0 to 100, 0 no effect, 100 complete control
value_type: Plant response rating, Lambsquarters
Numbers only.

The examples below pair each entry with its known result.
CCc1nn(-c2ccc(F)cc2)nc1Cc1ccnc(C(F)(F)F)c1 [Compound 154]; 100
Cc1nn(-c2ccc(F)cc2F)nc1Oc1ccnc(C(F)(F)F)c1 [Compound 146]; 85
Fc1ccc(-n2nc(Cc3ccnc(C(F)(F)F)c3)c(OC(F)F)n2)cc1 [Compound 25]; 98

Would you mind giving Plant response rating, Lambsquarters for every molecule in the list below?
1. Cc1nn(-c2ccc(F)c(C(F)(F)F)c2)nc1Cc1ccnc(C(F)(F)F)c1 [Compound 156]
2. CCc1nn(-c2ccc(C(F)(F)F)cc2)nc1Cc1ccnc(C(F)(F)F)c1 [Compound 155]

1. 100
2. 100

###

tested on: foxtail, giant (giant foxtail, Setaria faberii); experiment: Test A pre-/postemergence: foxtail, giant; type: in vivo; settings: Preemergence, 125 g ai/ha; 0 to 100 scale where 0 is no effect and 100 is complete control
value_type: Plant response rating, Foxtail, Giant

Cc1nn(-c2ccc(F)cc2)nc1Cc1cccc(C(F)(F)F)c1; 90
Cc1nn(-c2ccc(F)cc2)nc1Oc1cccc(C(F)(F)F)c1; 70
Cc1cc(Oc2nn(-c3ccc(F)cc3)nc2C)ccn1; 0
Cc1nn(-c2ccc(F)c(C(F)(F)F)c2)nc1Cc1ccnc(C(F)(F)F)c1; 100
CCc1nn(-c2ccc(F)cc2F)nc1Oc1ccnc(C(F)F)c1; 10

Hey, can you go through the list below and give me Plant response rating, Foxtail, Giant for every item?
1. CC(C)COc1nn(-c2ccc(C(F)(F)F)cc2)nc1Cc1ccnc(C(F)(F)F)c1
2. CCCCOc1nn(-c2ccc(C(F)(F)F)cc2)nc1Cc1ccnc(C(F)(F)F)c1
3. CCCCc1nn(-c2ccc(C(F)(F)F)cc2)nc1Oc1ccnc(C(F)(F)F)c1
4. CCc1nn(-c2ccc(F)cc2)nc1Cc1ccnc(C(F)(F)F)c1

[10, 0, 70, 100]

###

system: bromegrass, downy (downy bromegrass, Bromus tectorum); test: Test C pre-/postemergence: bromegrass, downy; type: in vivo; conditions: Postemergence, 62 g ai/ha; scale 0 to 100 (0 no effect, 100 complete control)
value_type: Plant response rating, Bromegrass, Downy
One number for each entry.

Cc1nn(-c2ccc(C(F)(F)F)c(F)c2)nc1Oc1ccnc(C(F)(F)F)c1; 55
FC(F)Oc1nn(-c2ccc(C(F)(F)F)cc2)nc1Cc1ccnc(C(F)(F)F)c1; 30
Cc1nn(-c2ccnc(Cl)c2)nc1Cc1ccnc(C(F)(F)F)c1; 30
Cc1nn(-c2ccc(C(F)(F)F)cc2)nc1Oc1ccnc(C(F)(F)F)c1; 15
FC(F)(F)c1ccc(-n2nc(Cl)c(Cc3ccnc(C(F)(F)F)c3)n2)cc1; 25

Reported Plant response rating, Bromegrass, Downy ( COc1nn(-c2ccc(C(F)(F)F)cc2)nc1Cc1ccnc(C(F)(F)F)c1 ) = 35

###

system: kochia (Kochia scoparia); assay: Test C pre-/postemergence: kochia; type: in vivo; settings: Postemergence, 125 g ai/ha; scale 0 to 100, 0 no effect, 100 complete control
value_type: Plant response rating, Kochia
One number for each entry.

Worked examples follow.
CCCc1nn(-c2ccc(C(F)(F)F)cc2)nc1Oc1ccnc(C(F)(F)F)c1; 90
Fc1ccc(-n2nc(Cc3ccnc(C(F)(F)F)c3)c(OC(F)F)n2)cc1; 90
CCOc1nn(-c2ccc(Cl)cc2)nc1Cc1ccnc(C(F)(F)F)c1; 90
CCc1nn(-c2ccc(C(F)(F)F)cc2)nc1Oc1ccnc(C(F)(F)F)c1; 90
CCc1nn(-c2ccc(C(F)(F)F)cc2)nc1Cc1ccnc(C(F)(F)F)c1; 95
Cc1nn(-c2ccc(C(F)(F)F)cn2)nc1Oc1ccnc(C(F)(F)F)c1; 80

Now consider the entry below.
// recorded Plant response rating, Kochia for COc1nn(-c2ccc(C(F)(F)F)cc2)nc1Cc1ccnc(C(F)(F)F)c1 : 95

###

system: foxtail, giant (giant foxtail, Setaria faberii); experiment: Test A pre-/postemergence: foxtail, giant; format: in vivo; conditions: Postemergence, 500 g ai/ha; visual rating on 0 to 100 scale (0 no effect, 100 complete control), approximately ten days
Mark y only for Foxtail, Giant plant response rating values smaller than 80; exact matches and larger values are n.

CCc1nn(-c2ccc(F)cc2)nc1Cn1ccc(C(F)(F)C(F)(F)F)n1; y
Cc1nn(-c2cccc(C(F)(F)F)c2)nc1Oc1cc(C(F)(F)F)nn1C; y
Cc1nn(-c2ccccn2)nc1C(=O)c1cccc(C(F)(F)F)c1; y
COc1nn(-c2ccc(F)cc2)nc1C(=O)c1ccnc(C(F)(F)F)c1; y
Cc1nn(-c2ccc(F)c(C(F)(F)F)c2)nc1Cc1ccnc(C(F)(F)F)c1; n
Cc1nn(-c2ccc(C(F)(F)F)cc2)nc1Oc1cccc(C(F)(F)F)c1; n

For this compound, is Foxtail, Giant plant response rating lower than 80? Cc1nn(-c2ccc(C(F)(F)F)cc2)nc1Oc1cc(C(F)(F)F)nn1C
y

Say whether its Foxtail, Giant plant response rating is strictly beneath 80. Entry: FC(F)Oc1nn(-c2ccc(C(F)(F)F)cc2)nc1Cc1ccnc(C(F)(F)F)c1
n

A record lists Cc1nn(-c2ccc(F)cc2)nc1Oc1cccc(C(F)(F)F)n1 . Is its Foxtail, Giant plant response rating below 80?
y

Dear reviewer, please state whether CON=C(c1cccc(C(F)(F)F)c1)c1nn(-c2ccnc(C(F)(F)F)c2)nc1C has Foxtail, Giant plant response rating strictly beneath 80.
y

Consider the compound CCc1nn(-c2ccc(C(F)(F)F)cc2)nc1Cn1cnc(C(F)(F)F)c1Cl . Is its Foxtail, Giant plant response rating strictly less than 80?
y

Does the reported Foxtail, Giant plant response rating of the following compound sit strictly below 80? Cc1cnccc1Oc1nn(-c2ccc(F)cc2)nc1C
y

Record Cc1nn(-c2ccc(F)c(F)c2)nc1Cc1ccnc(C(F)F)c1 : is its Foxtail, Giant plant response rating strictly below 80?
n

###

For each of the compounds below, state its Plant response rating, Morningglory.
Tested on: morningglory (Ipomoea coccinea)
Assay: Test C pre-/postemergence: morningglory
Format: in vivo
Conditions: Postemergence, 250 g ai/ha; scale 0 to 100
From the text: […] Treated plants and controls were maintained in a greenhouse for 13 to 15 days, after which time all species were compared to controls and visually evaluated. […]
Numbers only.

Hey, can you go through the list below and give me Plant response rating, Morningglory for every item?
1. Cc1nn(-c2ccc(F)c(C(F)(F)F)c2)nc1Cc1ccnc(C(F)(F)F)c1
2. FC(F)(F)COc1nn(-c2ccc(C(F)(F)F)cc2)nc1Cc1ccnc(C(F)(F)F)c1
3. Cc1nn(-c2ccc(C(F)(F)F)cn2)nc1Cc1cccc(C(F)(F)F)c1
4. Cc1nn(-c2ccc(C(F)(F)F)cn2)nc1Oc1ccnc(C(F)(F)F)c1

1. 100
2. 95
3. 40
4. 90

###

tested on: sedge, umbrella (small-flower umbrella sedge, Cyperus difformis); assay: Test C flooded paddy test: sedge, umbrella; type: in vivo; conditions: Flood (flooded paddy test), 125 g ai/ha; visual rating after 13 to 15 days, scale 0 to 100 (0 no effect, 100 complete control)
value_type: Plant response rating, Sedge, Umbrella
Numbers only.

Batch request: Plant response rating, Sedge, Umbrella for each of the following molecules.
1. Cc1nn(-c2ccc(C(F)(F)F)cn2)nc1Oc1ccnc(C(F)(F)F)c1 [Compound 23]
2. Cc1nn(-c2ccc(C(F)(F)F)cc2)nc1Oc1ccnc(C(F)(F)F)c1 [Compound 120]
3. Cc1nn(-c2ccc(C(F)(F)F)cc2)nc1Cn1cc(C(F)(F)F)cn1 [Compound 32]

[80, 90, 0]
